# protocol_description: Plasma Cmax in Sprague-Dawley rat at 2.06 mg/kg, po
# Format: ADME, organism-based
# Parameters: dose 2.06 mg/kg, route oral
measured_property: Cmax (ng/mL)
Express it in ng/mL; write the number only.

input: Returns the measured Cmax for the input compound. Input: "O=C(O)COc1ccc(SCC=C(c2ccc(Br)cc2)c2ccc(Br)cc2)cc1Cl"
output: 508

----------
# protocol_description: Oral bioavailability in Sprague-Dawley rat at 2.06 mg/kg
# Type: ADME, organism-based
# reported_conditions: in vivo
measured_property: bioavailability (%)
The reply should be a number in %, with the unit left off.

input: Request the reported bioavailability associated with "O=C(O)COc1ccc(SCC=C(c2ccc(Br)cc2)c2ccc(Br)cc2)cc1Cl"
output: 46

----------
# protocol_description: Clearance in Sprague-Dawley rat at 1.09 mg/kg, iv
# Format: ADME, organism-based
# Design: dose 1.09 mg/kg, route intravenous
# reported_conditions: in vivo
measured_property: clearance (mL/min/kg)
Give the value, in units of mL/min/kg, as a plain number.

input: What clearance value was documented for this compound, "Cc1cc(SCc2sc(-c3ccc(C(F)(F)F)cc3)nc2C)ccc1OCC(=O)O" ?
output: 7

----------
# protocol_description: Half life in Sprague-Dawley rat at 2.06 mg/kg, po
# Assay type: ADME, organism-based
# Parameters: dose 2.06 mg/kg, route oral
# reported_conditions: in vivo
measured_property: half-life
Give your result as the value with the unit written after it.

input: # query: half-life of entry "O=C(O)COc1ccc(SCC=C(c2ccc(Br)cc2)c2ccc(Br)cc2)cc1Cl"
output: 59 min

----------
# Tested on: L6
# protocol_description: Effect on fatty acid oxidation in rat L6 cells
# Type: functional, cell-based
Hi there, I'd appreciate the recorded EC50 for every entry that follows.
The answer is to be given in µM; state only the numeric part.

input: Tell me the measured EC50 of "O=C(O)Cc1ccc(OCC=C(c2ccc(Br)cc2)c2ccc(Br)cc2)c(Cl)c1" , please.
output: 0.379

input: Recorded EC50 for "O=C(O)CCc1cccc(OCC=C(c2ccc(Br)cc2)c2ccc(Br)cc2)c1" , please?
output: 0.615

input: Which EC50 is listed for "O=C(O)COc1ccc(SCC=C(c2ccc(Br)cc2)c2ccc(Br)cc2)cc1Cl" ?
output: 0.03

input: Look up EC50: "Cc1cc(SCc2sc(-c3ccc(C(F)(F)F)cc3)nc2C)ccc1OCC(=O)O"
output: 0.006

input: Look up EC50 for this compound: "O=C(O)Cc1cccc(OCC=C(c2ccc(Br)cc2)c2ccc(Br)cc2)c1"
output: 0.224

input: Any idea what EC50 was measured for "O=C(O)CCc1ccc(OCC=C(c2ccc(Br)cc2)c2ccc(Br)cc2)cc1" ?
output: 0.212

input: Entry CN(CCOc1ccc(CC2SC(=O)NC2=O)cc1)c1ccccn1 (stereo not given) : reported EC50 = ?
output: 5

input: Fill in the blank: the reported EC50 of "O=C(O)Cc1ccc(OCC=C(c2ccc(Br)cc2)c2ccc(Br)cc2)cc1" is ____.
output: 0.204

input: Param item = "Cc1cc(SCC=C(c2ccc(Br)cc2)c2ccc(Br)cc2)ccc1OCC(=O)O" ; retrieve measured EC50.
output: 0.003

input: What measured EC50 goes with "CC(C)(Oc1ccc(C(=O)c2ccc(Cl)cc2)cc1)C(=O)O" ?
output: 3
